Where these numbers come from: patent US20040059104A1

Test system: CEM-SS cells
protocol.details: Compound toxicity in CEM-SS cells (MTS staining)
Format: cell-based
condition.label: read-out: CEM-SS TC50
readout.label: CC50 (µM)

compound	endpoint.value
BP(=O)(OC[C@H]1O[C@@H](n2cc(C)c(=O)[nH]c2=O)C[C@H]1N=[N+]=[N-])OP(=O)(O)C(F)(F)P(=O)(O)OCOC(=O)C(C)(C)C (some centres unmarked)	45.9
BP(=O)(OC[C@H]1O[C@@H](n2cc(C)c(=O)[nH]c2=O)C[C@H]1N=[N+]=[N-])OP(=O)(O)C(F)(F)P(=O)(O)Oc1ccccc1 (some centres unmarked)	32.1

---

protocol.details: Stability assessment using cell extracts
condition.label: human, 50% CEM cell extract, pH 7.4
readout.label: half-life at 500 μM

compound	readout.label	endpoint.value
Nc1ncnc2c1ncn2[C@@H]1O[C@H](COP(=O)(O)OP(=O)(O)OP(=O)(O)O)[C@@H](O)[C@H]1O [Adenosine Triphosphate, reference compound]	half-life at 500 μM	15 min

---

protocol.details: Serum stability assessment
condition.label: bovine, 50% fetal calf serum, Half-Life, Serum Half-Lives of AZT Triphosphate Mimic Prodrugs, Table 7, 37° C., 500 μM; time points through 48 hours

compound	half-life at 500 μM [h]
Nc1ncnc2c1ncn2[C@@H]1O[C@H](COP(=O)(O)OP(=O)(O)OP(=O)(O)O)[C@@H](O)[C@H]1O [Adenosine Triphosphate, reference compound]	1.5
